- TEST_NAME: Stability of compound at pH 7.4 assessed as prodrug remaining level at 125 ug/ml incubated for 24 hrs by HPLC analysis
- Format: physicochemical
- MEASUREMENT_SETUP: buffer, pH 7.4, 24 h, at 125 µg/mL
OBSERVABLE: Stabilty (%)
Field format: number, assumed %, no unit text.

COC(=O)N[C@H](C(=O)N1CCC[C@H]1c1nc2cc(F)c([C@H]3CC[C@H](c4cc5nc([C@@H]6CCCN6C(=O)[C@@H](NC(=O)OC)[C@@H](C)OC)n(COC(=O)Cc6ccc(OP(=O)(O)O)cc6)c5cc4F)N3c3cc(F)c(N4CCC(c5ccc(F)cc5)CC4)c(F)c3)cc2[nH]1)[C@@H](C)OC	71
COC(=O)N[C@H](C(=O)N1CCC[C@H]1c1nc2cc(F)c([C@H]3CC[C@H](c4cc5nc([C@@H]6CCCN6C(=O)[C@@H](NC(=O)OC)[C@@H](C)OC)n(COC(=O)CC(C)(C)c6c(C)cc(C)cc6OP(=O)(O)O)c5cc4F)N3c3cc(F)c(N4CCC(c5ccc(F)cc5)CC4)c(F)c3)cc2[nH]1)[C@@H](C)OC	100

API: the following record is the query input.
Record summary for COC(=O)N[C@H](C(=O)N1CCC[C@H]1c1nc2cc(F)c([C@H]3CC[C@H](c4cc5c(cc4F)nc([C@@H]4CCCN4C(=O)[C@@H](NC(=O)OC)[C@@H](C)OC)n5COC(=O)N(C)c4ncccc4COP(=O)(O)O)N3c3cc(F)c(N4CCC(c5ccc(F)cc5)CC4)c(F)c3)cc2[nH]1)[C@@H](C)OC : reported Stabilty = 90
